- tested-target: T1, recombinant human LRP1 ligand binding cluster II (amino acids 786-1165, C-terminal Fc) (human)
- T1 construct: range 786-1165; Bought from R&D Systems, NS0-expressed; also called rhLRP1 cluster II; hrLRP1 cluster II
- T1 sequence (Q07954 786-1165): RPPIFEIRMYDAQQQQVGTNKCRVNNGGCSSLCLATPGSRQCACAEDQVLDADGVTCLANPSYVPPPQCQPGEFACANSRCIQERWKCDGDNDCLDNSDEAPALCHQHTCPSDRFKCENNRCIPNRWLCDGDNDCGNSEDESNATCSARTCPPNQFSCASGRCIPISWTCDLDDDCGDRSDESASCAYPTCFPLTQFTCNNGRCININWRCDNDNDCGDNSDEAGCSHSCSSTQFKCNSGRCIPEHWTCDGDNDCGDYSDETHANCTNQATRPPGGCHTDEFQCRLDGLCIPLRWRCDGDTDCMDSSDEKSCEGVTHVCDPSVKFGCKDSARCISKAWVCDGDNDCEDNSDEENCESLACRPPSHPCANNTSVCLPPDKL
- experimental-protocol: solid-phase binding assay, receptor coated on plate, streptavidin-HRP detection, EDTA-subtracted
readout-name: Kd (nM)
Could you give me the number in nM? Just the number is fine.

Requested read-out: Kd. Entry: mRAPc (N-terminal biotin-GGSGG; intramolecular disulfide between C241 and C315 (mature RAP numbering), Synthetic; also called mRAPc peptide; monomeric peptide) peptide: CGFREELKHFEAKIEKHNHYQKQLEIAHEKLRHAESVGDGERVSRSREKHALLEGRTKELGYTVKKHLQDLSGGC 10

// same read-out, input: tag-free RAP d3 peptide (amino acids 201-319 of mature human RAP, C-terminal cysteine linked to biotin) (ligand, C-terminal cysteine linked to maleimide-PEO2-biotin, Bacterially expressed, from GeneScript; lacks HNEL; also called full-length RAP d3) LDRLRRVSHQGYSTEAEFEEPRVIDLWDLAQSANLTDKELEAFREELKHFEAKIEKHNHYQKQLEIAHEKLRHAESVGDGERVSRSREKHALLEGRTKELGYTVKKHLQDLSGRISRARC 8
